Consider the following compounds; for each one, report its IC50.
Target: MRP (Homo sapiens)
Construct: endogenous in cells
Sequence (P33527 whole entry): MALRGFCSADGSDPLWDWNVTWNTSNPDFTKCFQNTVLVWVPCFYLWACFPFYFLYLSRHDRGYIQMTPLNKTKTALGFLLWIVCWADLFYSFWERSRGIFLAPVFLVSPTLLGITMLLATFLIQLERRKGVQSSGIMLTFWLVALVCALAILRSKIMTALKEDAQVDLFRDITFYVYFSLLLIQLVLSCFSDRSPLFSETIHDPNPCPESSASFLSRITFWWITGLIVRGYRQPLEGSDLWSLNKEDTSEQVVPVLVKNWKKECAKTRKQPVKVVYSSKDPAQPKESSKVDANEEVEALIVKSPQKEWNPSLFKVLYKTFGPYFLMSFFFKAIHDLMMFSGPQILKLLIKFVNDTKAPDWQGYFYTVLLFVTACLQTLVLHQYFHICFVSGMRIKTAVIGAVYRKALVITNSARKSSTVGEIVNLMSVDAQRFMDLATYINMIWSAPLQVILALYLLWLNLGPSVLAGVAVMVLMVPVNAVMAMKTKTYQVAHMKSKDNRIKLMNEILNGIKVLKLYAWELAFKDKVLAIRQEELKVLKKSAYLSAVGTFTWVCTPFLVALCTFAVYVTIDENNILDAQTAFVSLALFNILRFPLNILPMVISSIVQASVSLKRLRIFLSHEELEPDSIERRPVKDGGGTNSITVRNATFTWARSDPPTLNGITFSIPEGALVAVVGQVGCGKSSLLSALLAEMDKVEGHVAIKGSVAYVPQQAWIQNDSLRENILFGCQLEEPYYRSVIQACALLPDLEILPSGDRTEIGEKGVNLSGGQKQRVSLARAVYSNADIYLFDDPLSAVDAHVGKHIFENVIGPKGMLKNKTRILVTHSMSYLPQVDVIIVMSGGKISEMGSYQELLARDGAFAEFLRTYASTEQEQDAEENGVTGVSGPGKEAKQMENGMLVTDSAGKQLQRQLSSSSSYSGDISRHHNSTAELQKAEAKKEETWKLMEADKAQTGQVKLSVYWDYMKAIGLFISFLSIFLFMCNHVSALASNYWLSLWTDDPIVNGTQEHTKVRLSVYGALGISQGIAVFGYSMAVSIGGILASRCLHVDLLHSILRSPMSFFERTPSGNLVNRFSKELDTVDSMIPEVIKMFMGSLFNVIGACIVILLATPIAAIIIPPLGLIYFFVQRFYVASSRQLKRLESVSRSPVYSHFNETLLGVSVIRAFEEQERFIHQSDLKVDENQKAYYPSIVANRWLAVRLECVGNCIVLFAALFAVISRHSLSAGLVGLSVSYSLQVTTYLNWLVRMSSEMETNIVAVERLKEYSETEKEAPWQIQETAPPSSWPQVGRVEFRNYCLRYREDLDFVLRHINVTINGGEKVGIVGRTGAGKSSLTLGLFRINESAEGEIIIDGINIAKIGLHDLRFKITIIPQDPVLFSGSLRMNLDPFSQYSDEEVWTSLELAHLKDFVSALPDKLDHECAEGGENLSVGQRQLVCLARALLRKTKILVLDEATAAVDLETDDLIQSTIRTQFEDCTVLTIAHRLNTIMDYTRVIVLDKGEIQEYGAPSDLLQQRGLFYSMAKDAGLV
Experiment: Inhibition of MRP-mediated calcein-AM extrusion (calcein accumulation) in S1MRP and HL60 ADR cells
Assay type: cell-based
Conditions: inhibition of MRP-mediated calcein-AM extrusion; S1MRP and HL60 ADR cells; range of at least 3 independent experiments with each cell line; read-out: IC50 MRP

Q: Endpoint output: IC50 of C=C(CC)C(=O)c1ccc(OCC(=O)O)c(Cl)c1Cl . Value?
Result: 20 to 30 µM

Q: Param item = CC/C(=C(\c1ccccc1)c1ccc(OCCN(C)C)cc1)c1ccccc1 ; retrieve measured IC50.
Result: 3 to 6 µM

Q: Could you tell me which IC50 is on file for O=C1C(CC[S+]([O-])c2ccccc2)C(=O)N(c2ccccc2)N1c1ccccc1 (stereo not shown) ?
Result: 300 to 500 µM

Q: Name the reported IC50 value associated with the compound CCN1C(=O)C=CC1=O [NEM, N-ethylmaleimide]
Result: 0.2 to 0.5 µM

Q: Consider the compound shown here: C[CH2][Hg][S]c1ccccc1C(=O)[O-].[Na+] [Merthiolate] What is its recorded IC50?
Result: 10 to 20 µM

Q: IC50 for O=[N+]([O-])c1ccc(O)c([N+](=O)[O-])c1 ?
Result: 30 to 50 µM

Q: What measured IC50 goes with Clc1ccc(COC(Cn2ccnc2)c2ccc(Cl)cc2Cl)cc1 (stereo not shown) ?
Result: 3 to 10 µM

Numbers sourced from patent US6391656B2.
